Literature pIC50 values, system: Prostaglandin E2 receptor EP3 subtype (Homo sapiens, UniProt P43115).
pIC50: −log10 of the molar value.

{"columns": ["COMPOUND", "pIC50"],
 "data": [
  ["O=C(C=Cc1cccc2c1N(Cc1ccc(Cl)cc1Cl)C(=O)C2(O)C[N+](=O)[O-])NS(=O)(=O)c1cc(Cl)c(Cl)s1 (stereo not drawn)", "> 6.00"],
  ["O=Cc1cn(Cc2ccc(Cl)cc2Cl)c2c(C=CC(=O)NS(=O)(=O)c3cc(Cl)c(Cl)s3)cc(F)cc12", "> 6.00"],
  ["CC(C)(C)OC(=O)N1CCCc2cccc(OCC(=O)NS(=O)(=O)c3cccs3)c21", "> 6.00"],
  ["Cc1cn(Cc2ccc(Cl)cc2Cl)c2c(-c3nnc(NC(=O)c4ccc(F)cc4F)o3)cc(F)cc12", "5.00 to 6.00"],
  ["O=C(C=Cc1cccc2c1N(Cc1ccc3ccccc3c1)C(=O)C2=O)NS(=O)(=O)c1cccs1", "> 6.00"],
  ["Cc1nnc(Sc2c[nH]c3cccc(OCC(=O)NS(=O)(=O)c4cc(Cl)c(Cl)s4)c23)s1", "> 6.00"],
  ["CC12CCCC(/C=C/C(=O)O)=C1N(Cc1ccc(F)cc1)C(=O)C2 (stereo not drawn)", "> 6.00"],
  ["CC12CCCC(/C=C/C(=O)O)=C1N(Cc1cccc(Cl)c1Cl)C(=O)C2 (stereo not drawn)", "5.00 to 6.00"],
  ["O=C(C=Cc1cc(F)cc2ccn(Cc3ccc4ccccc4c3)c12)NS(=O)(=O)c1cccs1", "> 6.00"],
  ["Cc1cn(Cc2ccc(Cl)cc2Cl)c2c(-c3nc(NS(=O)(=O)c4cc(Cl)c(Cl)s4)no3)cc(F)cc12", "> 6.00"],
  ["Cc1cn(Cc2ccc(Cl)cc2Cl)c2c(C=CC(=O)NS(=O)(=O)c3ccccc3)cccc12", "> 6.00"],
  ["Cn1cc(C=CC(=O)NS(=O)(=O)c2cc(F)c(F)cc2F)c2c(Oc3cnc4ccccc4n3)cccc21", "> 6.00"],
  ["Cc1cn(Cc2cn3ccccc3n2)c2c(C=CC(=O)NS(=O)(=O)c3ccc(Cl)c(Cl)c3)cc(F)cc12", "> 6.00"],
  ["Cc1cn(Cc2ccccc2Cl)c2c(/C=C/C(=O)NS(=O)(=O)c3cccs3)cccc12", "> 6.00"],
  ["O=C(COc1cccc2[nH]cc(S(=O)(=O)c3ccc4ccccc4c3)c12)NS(=O)(=O)c1ccc(F)cc1", "> 6.00"]
]}

* * *

# pIC50 against Prostaglandin E2 receptor EP3 subtype (Homo sapiens, UniProt P43115), merged from multiple literature sources
pIC50: −log10 of the molar value.
MEASURED QUANTITY: pIC50

{"columns": ["COMPOUND", "SYSTEM TESTED", "RECORDED RESULT"],
 "data": [
  ["CC(C)c1cn(Cc2ccc(Cl)cc2Cl)c2c(CCC(=O)NS(=O)(=O)c3cccs3)cccc12", "Prostaglandin E2 receptor EP3 subtype (Homo sapiens, UniProt P43115)", "5.00 to 6.00"],
  ["Cc1cn(Cc2ccc3ccccc3c2)c2c(/C=C/C(=O)N(C)S(=O)(=O)c3cc(Cl)c(Cl)s3)cc(F)cc12", "Prostaglandin E2 receptor EP3 subtype (Homo sapiens, UniProt P43115)", "> 6.00"],
  ["Cn1cc(C=CC(=O)NS(=O)(=O)c2ccccc2F)c2c(Oc3ccc4ccccc4c3)cccc21", "Prostaglandin E2 receptor EP3 subtype (Homo sapiens, UniProt P43115)", "> 6.00"],
  ["CC1C(=O)N(Cc2ccc(Cl)cc2Cl)c2c(C=CC(=O)NS(=O)(=O)c3cccs3)cc(F)cc21 (stereo not drawn)", "Prostaglandin E2 receptor EP3 subtype (Homo sapiens, UniProt P43115)", "> 6.00"],
  ["Cc1cn(Cc2ccc3ccccc3c2)c2c(/C=C/C(=O)NS(=O)(=O)c3cccs3)cccc12", "Prostaglandin E2 receptor EP3 subtype (Homo sapiens, UniProt P43115)", "> 6.00"],
  ["Cn1cc(C=CC(=O)NS(=O)(=O)c2ccc(F)c(F)c2)c2c(Oc3ccc(F)cc3Cl)cccc21", "Prostaglandin E2 receptor EP3 subtype (Homo sapiens, UniProt P43115)", "> 6.00"],
  ["Cc1cn(Cc2ccc(Cl)cc2Cl)c2c(/C=C/C(O)(C(F)(F)F)C(F)(F)F)cc(F)cc12", "Prostaglandin E2 receptor EP3 subtype (Homo sapiens, UniProt P43115)", "5.00 to 6.00"],
  ["O=C(COc1cccc2c1N(Cc1ccc3nonc3c1)C(=O)CO2)NS(=O)(=O)c1cccs1", "Prostaglandin E2 receptor EP3 subtype (Homo sapiens, UniProt P43115)", "5.00 to 6.00"],
  ["Cn1cc(C=CC(=O)NS(=O)(=O)c2cc(F)c(F)cc2F)c2c(Oc3ccc(F)c(F)c3)cccc21", "Prostaglandin E2 receptor EP3 subtype (Homo sapiens, UniProt P43115)", "> 6.00"],
  ["Cc1cn(Cc2ccc(Cl)cc2Cl)c2c(/C=C/C(=O)O)cccc12", "Prostaglandin E2 receptor EP3 subtype (Homo sapiens, UniProt P43115)", "> 6.00"],
  ["COCc1cn(Cc2ccc(Cl)cc2Cl)c2c(/C=C/C(=O)O)cccc12", "Prostaglandin E2 receptor EP3 subtype (Homo sapiens, UniProt P43115)", "> 6.00"],
  ["Cn1cc(/C=C/C(=O)NS(=O)(=O)c2cc(Cl)c(Cl)s2)c2c(Oc3ccc(Cl)c(F)c3)cccc21", "Prostaglandin E2 receptor EP3 subtype (Homo sapiens, UniProt P43115)", "> 6.00"],
  ["O=C(C=Cc1cc(F)cc2c(CO)cn(Cc3ccc(Cl)cc3Cl)c12)NS(=O)(=O)c1cc(Cl)c(Cl)s1", "Prostaglandin E2 receptor EP3 subtype (Homo sapiens, UniProt P43115)", "> 6.00"],
  ["Cc1cn(Cc2ccc(F)c(F)c2)c2c(-c3cc(NS(=O)(=O)c4cc(F)c(F)cc4F)no3)cc(F)cc12", "Prostaglandin E2 receptor EP3 subtype (Homo sapiens, UniProt P43115)", "> 6.00"],
  ["CC(C)c1cn(Cc2ccc(Cl)cc2Cl)c2c(CCC(=O)O)cccc12", "Prostaglandin E2 receptor EP3 subtype (Homo sapiens, UniProt P43115)", "5.00 to 6.00"]
]}

* * *

Compiled from multiple publications: IC50 readings for Prostaglandin E2 receptor EP3 subtype (Homo sapiens, UniProt P43115).

{"columns": ["MOLECULE", "IC50"],
 "data": [
  ["O=C(COc1cccc2c1N(Cc1ccccc1)C(=O)CO2)NS(=O)(=O)c1cccs1", "1000 to 10000 nM"],
  ["Cn1cc(C=CC(=O)NS(=O)(=O)c2ccc(F)c(F)c2)c2c(Oc3ccc(Cl)cc3Cl)cccc21", "< 1000 nM"],
  ["O=C(C=Cc1cccc2c1N(Cc1ccc(Cl)cc1Cl)C(=O)C2(F)F)NS(=O)(=O)c1cccs1", "< 1000 nM"],
  ["CC12CCCC(/C=C/C(=O)O)=C1N(Cc1cccc(Cl)c1)C(=O)C2 (stereo not drawn)", "1000 to 10000 nM"],
  ["Cc1cn(Cc2ccc(Cl)cc2Cl)c2c(-c3nnc(NC(=O)c4ccc(Cl)cc4Cl)o3)cc(F)cc12", "1000 to 10000 nM"],
  ["O=C(COc1cccc2c1C(F)(Cc1ccc3ccccc3c1)C(=O)N2)NS(=O)(=O)c1cc(Cl)c(Cl)s1 (stereo not drawn)", "< 1000 nM"],
  ["CC12CCCC(/C=C/C(=O)NS(=O)(=O)c3cc(Cl)c(Cl)s3)=C1N(Cc1ccc(F)c(F)c1)C(=O)C2 (stereo not drawn)", "< 1000 nM"],
  ["Cc1cn(Cc2ccc3ccccc3c2)c2c(-c3cc(NS(=O)(=O)c4cc(Cl)c(Cl)s4)no3)cc(F)cc12", "< 1000 nM"],
  ["COc1cccc(CN2C(=O)COc3cccc(OCC(=O)NS(=O)(=O)c4cccs4)c32)c1", "1000 to 10000 nM"],
  ["COCc1cn(Cc2ccc(Cl)cc2Cl)c2c(C=CC(=O)NS(=O)(=O)c3cccs3)cccc12", "< 1000 nM"],
  ["Cn1cc(C=CC(=O)NS(=O)(=O)c2cc(Cl)c(Cl)s2)c2c(Oc3ccc(Cl)c(Cl)c3)cccc21", "< 1000 nM"],
  ["CC(=O)Nc1ccc(Sc2c[nH]c3cccc(OCC(=O)NS(=O)(=O)c4cc(Cl)c(Cl)s4)c23)cc1", "< 1000 nM"],
  ["O=C(O)/C=C/c1cccc2ccn(Cc3ccc4ccccc4c3)c12", "< 1000 nM"],
  ["COc1cc(Cn2cc(C)c3cccc(/C=C/C(=O)NS(=O)(=O)c4cc(Cl)c(Cl)s4)c32)cc(OC)c1", "< 1000 nM"],
  ["Cc1cn(Cc2ccc(Cl)cc2Cl)c2c(-c3ccc(NS(=O)(=O)c4cc(Cl)c(Cl)s4)nc3)cc(F)cc12", "< 1000 nM"]
]}
